- TEST_TARGET: UniProt P52699
- Sequence (P52699 19-246, looked up, species assumed): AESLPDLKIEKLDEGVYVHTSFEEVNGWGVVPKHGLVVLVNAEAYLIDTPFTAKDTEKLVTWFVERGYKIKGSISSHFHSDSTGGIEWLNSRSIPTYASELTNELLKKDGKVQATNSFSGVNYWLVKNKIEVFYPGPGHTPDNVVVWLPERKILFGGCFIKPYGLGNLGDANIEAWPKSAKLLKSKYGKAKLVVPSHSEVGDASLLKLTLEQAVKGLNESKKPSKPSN
- MEASUREMENT_DESCRIPTION: Enzyme activity: determination of IC50, fluorescence assay with CCF2-FA substrate
- Assay type: biochemical
- PROTOCOL_CONDITIONS: IMP-1 enzyme 2 pM, CCF2-FA 1.25 μM, 2 hours at 25° C.; read-out: IMP1 IC50
The compounds listed here are annotated with their pIC50.
Scale note: pIC50 = -log10(concentration in M).

* CCC[C@H](C(=O)O)[C@H](Cc1ccc(Cl)cc1)c1nnn[nH]1 [Example 263] | 6.37

Here is another compound to look at.
QUERY: Would you kindly share the measured pIC50 for CC(C)(C)[C@H](C(=O)O)[C@H](Cc1ccc(C2=CCNC2)nc1)c1nnn[nH]1.O=C(O)C(F)(F)F [Example 429, 2,2,2-trifluoroacetate] ?
RESULT: 6.21
